Overview of recorded IC50 (pM), ISRE assay for various binders
# system: human IFN-ω (human, UniProt P05000 24-195)
# test.protocol: cell-based or functional assay

[
  {
    "binder": "IFWM3310 (antibody, IgG1, V domains shown) VH: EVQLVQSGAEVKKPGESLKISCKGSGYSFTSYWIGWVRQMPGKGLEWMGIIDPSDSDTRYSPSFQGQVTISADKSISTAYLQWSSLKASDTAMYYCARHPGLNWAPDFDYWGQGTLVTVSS VL: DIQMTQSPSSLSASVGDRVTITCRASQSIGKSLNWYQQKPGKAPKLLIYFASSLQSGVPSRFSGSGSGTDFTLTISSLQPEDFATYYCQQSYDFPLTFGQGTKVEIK",
    "IC50 (pM), ISRE assay": 81
  },
  {
    "binder": "IFWM3385 (antibody, IgG1, V domains shown) VH: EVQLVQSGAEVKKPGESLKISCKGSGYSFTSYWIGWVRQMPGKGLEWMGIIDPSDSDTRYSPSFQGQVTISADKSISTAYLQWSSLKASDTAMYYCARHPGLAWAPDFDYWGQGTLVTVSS VL: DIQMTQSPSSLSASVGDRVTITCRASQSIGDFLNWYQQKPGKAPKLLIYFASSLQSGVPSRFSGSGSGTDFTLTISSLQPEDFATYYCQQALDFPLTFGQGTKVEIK",
    "IC50 (pM), ISRE assay": 68
  },
  {
    "binder": "IFWM3416 (antibody, IgG1, V domains shown) VH: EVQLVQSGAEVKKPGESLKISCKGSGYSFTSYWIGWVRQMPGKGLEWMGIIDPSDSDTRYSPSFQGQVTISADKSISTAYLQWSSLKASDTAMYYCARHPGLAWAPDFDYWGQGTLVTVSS VL: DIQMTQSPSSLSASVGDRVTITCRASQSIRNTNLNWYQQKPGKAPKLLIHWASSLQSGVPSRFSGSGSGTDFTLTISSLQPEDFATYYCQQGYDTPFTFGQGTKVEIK",
    "IC50 (pM), ISRE assay": 40
  },
  {
    "binder": "IFWM3320 (antibody, IgG1, V domains shown) VH: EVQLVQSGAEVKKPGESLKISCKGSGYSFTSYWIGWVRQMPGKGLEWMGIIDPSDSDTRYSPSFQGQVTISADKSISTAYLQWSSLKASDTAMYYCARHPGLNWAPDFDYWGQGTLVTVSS VL: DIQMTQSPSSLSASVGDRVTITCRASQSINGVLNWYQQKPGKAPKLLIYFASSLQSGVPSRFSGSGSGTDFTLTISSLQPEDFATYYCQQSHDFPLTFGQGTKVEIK",
    "IC50 (pM), ISRE assay": 53
  },
  {
    "binder": "IFWM3307 (antibody, IgG1, V domains shown) VH: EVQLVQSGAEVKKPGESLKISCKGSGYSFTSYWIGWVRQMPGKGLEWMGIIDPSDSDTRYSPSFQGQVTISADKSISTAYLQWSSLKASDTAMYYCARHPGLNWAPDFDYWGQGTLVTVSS VL: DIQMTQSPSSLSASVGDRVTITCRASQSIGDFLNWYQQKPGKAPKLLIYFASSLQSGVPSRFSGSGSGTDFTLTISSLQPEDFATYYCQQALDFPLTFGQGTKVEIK",
    "IC50 (pM), ISRE assay": 100
  }
]
